- system.name: pre-pro-insulin glargine
The entries below are paired with their reported desArg.
quantity: desArg

protein | result.value
trypsin variant SEQ ID NO: 93 (protein) IVGGYTCAANSIPYQVSLNSGSHRCGGSLINSQWVVSAAHCYKSRIQVRLGEHNIDVLEGNEQFINAAKIITHPNFNPNTLDNDIMLIKLSSPATLNSNVATVSLPTSCAAAGTECLISGWGNTCSSGSSMPSLLQCLKAPVLSDSSCKSSYPGQITGNMICVGFLEGGADACQGDSGGPVVCNGQLQGIVSSGYGCAQKNKPGVYTKVCNYVNWIQQTIAAN | 0.7 area %
trypsin variant SEQ ID NO: 87 (protein) IVGGYTCAANSIPYQVSLNSGSHRCGGSLINSQWVVSAAHCYKPRIQVRLGEHNIHVLEGNEQFINAAKIITHPNFNPNTLDNDIMLIKLSSPATLNSHVATVSLPTSCAAAGTECLISGWGNTSSSGSSMPSLLQCLKAPVLSDSSCKSSYPGQITGNMICVGFLEGGKDACQGDSGGPVVCNGQLQGIVSSGYGCAQKNKPGVYTKVCNYVNWIQQTIAAN | 0.6 area %
trypsin variant SEQ ID NO: 100 (protein) IVGGYTCAANSIPYQVSLNSGSHRCGGSLINSQWVVSAAHCYKPRIQVRLGEHNIDVLEGNEQFINAAKIITHPNFNPNTLDNDIMLIKLSSPATLNSHVATVSLPTSCAAAGTECLISGWGNTCSSGSSMPSLLQCLKAPVLSDSSCKSSYPGQITGNMICVGFLEGGADACQGDSGGPVVCNGQLQGIVSSGYGCAQKNKPGVYTKVCNYVNWIQQTIAAN | 0.7 area %
